These data points were gathered from patent US10988457B2.

test system: TLR7/8; assay: TLR7/8 Inhibition Assay IC50 in human PBMC's, cytokine release after CL075 stimulation (Luminex); type: cell-based; details: human PBMC's from one donor, CL075 2 μg/mL, 24 hours, eight concentrations 0.01-100 μM; read-out: IC50 levels for test compounds, L-12p40
Measured IC50, listed per entry for reference.

COMPOUND	IC50
COc1ccc2c(c1)CCN(CCNC(=O)C1CCCN(c3ccc(C#N)cc3)C1)C2 (centres unmarked)	10 to 20 µM
COc1ccc2c(c1)CCN(CCCNC(=O)C1CCN(c3ccc(C#N)cc3)CC1)C2	10 to 20 µM
COc1ccc2c(c1)CCN(CCNC(=O)C1CCN(c3ccc(C(F)(F)F)cn3)CC1)C2	> 20 µM
N#Cc1ccc(N2CCCC(C(=O)NCCN3CCc4ccccc43)C2)c(F)c1 (centres unmarked)	10 to 20 µM
COc1ccc2c(c1)CCN(CCNC(=O)C1CCCN(c3ccc(C#N)cc3F)C1)C2 (centres unmarked)	10 to 20 µM
